Test system: FGFR2(IIIb)
Assay Text: Chemical cross-linking of 125I-FGF to soluble FGFR2(IIIb)
Assay type: binding, murine
Condition: with and without excess unlabelled FGF
Attribute Measured: Cross-linking to FGFR2(IIIb)

substance="FGF-2LI: human FGF-2 with loop residues 118-122 replaced by Ala-Gln-Phe-Pro-Asn from human interleukin-1β (SEQ ID NO 15)" readout_value="excluded from binding"
substance="FGF-7: fibroblast growth factor-7, also known as keratinocyte growth factor or KGF (NHYNTYASAKWTHNGGEMFVALNQK)" readout_value=bind
substance="FGF-2LA: human FGF-2 with loop residues 118-122 replaced by Lys-Lys-His-Ala-Glu-Lys-His from bovine FGF-1 (SEQ ID NO 16) (KKHAEKH; printed: Lys-Lys-His-Ala-Glu-Lys-His)" readout_value=bind
substance="FGF-2: basic fibroblast growth factor, wild-type factor used as comparator (NNYNTYRSRKYTSWYVALKRT) [reference compound]" readout_value="excluded from binding"
